Each recorded value in this set is attributed to patent US6747033B2.

test system: Alternara solani; assay: In vivo fungicidal activity, Tomato early blight (TEB); conditions: 200 ppm spray; also: ranges in brackets are in %

molecule: CC(N=c1c(-c2ccc(F)cc2F)c(Cl)n(C)c2ncnn12)C(F)(F)F (stereo not shown) [Example 7]
TEB disease control rating: 0 (0)
//
molecule: CCn1c(Cl)c(-c2c(F)cc(F)cc2F)c(=NC(C)C(F)(F)F)n2ncnc12 (stereo not shown) [Example 3]
TEB disease control rating: 0 (0)
//
molecule: CC(N=c1c(-c2c(F)cccc2F)c(Cl)nc2n(C)cnn12)C(F)(F)F (stereo not shown) [Example 14]
TEB disease control rating: 0 (0)
//
molecule: CCCn1c(Cl)c(-c2c(F)cc(F)cc2F)c(=NC(C)C(F)(F)F)n2ncnc12 (stereo not shown) [Example 2]
TEB disease control rating: 0 (0)
